Experiment: Bioavailability in Sprague-Dawley rat at 0.5 mg, iv and 2.0 mg, po
Assay type: ADME, organism-based
Conditions: in vivo
valueType: bioavailability (%)
Kindly provide the numeric value in % only, without the unit symbol.

Entry Cc1c(C(=O)c2ccc(Cl)cc2)c2ccc(OC(F)(F)F)cc2n1Cc1cccc(O[C@@H](C)C(=O)O)c1 , bioavailability reported as 45

Entry COc1ccc(C(=O)c2c(C)n(Cc3cc(O[C@@H](C)C(=O)O)ccc3F)c3nc(OC)ccc23)cc1 — recorded bioavailability = 37

Cc1c(Oc2ccc(Cl)cc2)c2ccc(F)nc2n1Cc1ccc(Cl)c(O[C@@H](C)C(=O)O)c1 yielded bioavailability of 47

bioavailability in this record for COc1ccc(C(=O)c2c(C)n(Cc3cc(O[C@@H](C)C(=O)O)ccc3F)c3ncccc23)cc1 : 51

bioavailability reported for this molecule COc1ccc(C(=O)c2c(C)n(Cc3cccc(O[C@@H](C)C(=O)O)c3)c3ncccc23)cc1 : 29

---
// field: bioavailability; key: COc1ccc(C(=O)c2c(C)n(Cc3cccc(O[C@@H](C)C(=O)O)c3)c3nc(C)ccc23)cc1 ; value = 80

Per the records, this molecule ( Cc1c(Oc2ccc(Cl)cc2)c2cccnc2n1Cc1cc(O[C@@H](C)C(=O)O)ccc1F ) has bioavailability equal to 77
